Source listed as the nanobody polyreactivity screen of Harvey et al. (2022).

Assay info: yeast display, Sf9 membrane polyspecificity reagent, FACS + sequencing; frameworks hold sequencing errors
Quantity kind: polyreactivity (PSR sort gate)

Residues	Assay value
QVQLVESGGGLVQAGGSLRLSCAASGFIFFEYAMGWYRQAPGKERELVAAISWSDDTTYYADSVKGRFTISRDNAKNTVYLQMNSLKPEDTAVYYCAAEKVSGQGEMDYWGQGTQVTVSS	low polyreactivity
QDQLLETGGGLVQAGGSLRLSCAASGSTSLVYAMGWYRQAPGKERELVADISWSGGSTYYTDSVKGRFTISRDNAKNTVYLQMNSLKPEDTAVYYCNGGTYSTSVPYPYKYWGQGTQVTVSS	high polyreactivity
QVQLVESGGGLVQAGGSLRLSCAASGRIFRSYVMGWYRQAPGKERELVAVISKNGGTTYYADSVKGRFTISRDNAKNTVYFQRNSLKPEDTAVYYCAARRLGYYRKVKELDYWGQGTQVTVSS	high polyreactivity
QDQLVESGGGLVQAGASLRLSCADSGFTFTTNAMGWYRHAPGKERELVAAISFSGGTTYYADSVKGRFTISRDNAKNTVYLQMNRLKPEDTAVYYCAAQPGQAWWSTDHDDYWGQGTQVTVSS	low polyreactivity
QGQLVESGGGLVQAGGSLRLSCAASGSTFSDYAKGWYRQAPGKERELVAGITGGGGTYYADSVKGRFTISRDNAKNTVYLQMNSLKPEDTAVYYCAAGRRHGFGYWGQGTQVTVSS	low polyreactivity
QVQLVESGGGLVQAGGSLRLSCAASGRTLLANAMGWYRQAPGKARELVAAITWTGGRTNYADSVKGRFTISRDNAKNTVYLQMNSLKPEDTAVYYCAADIFYEQVVGGTDVGYHDFDYWGQGTQVTVSS	low polyreactivity
QVQLVESGGGLVQAGGSLRLSCAASGSIFSYYAMGWYRQAPGKERELVSANTSGDGTNYADSVKGRFTISRDNAKNTVYLQMNILKPDDTAVYYCAADAVDSYWREDYWGQGTQVTVSS	low polyreactivity
QVQLVESGGGLVQAGGSLRLSCAASGIIFGGYAMGWYRQAPGKERELVASITYDGGSTSYEDSVKGRFTISRDNAKNTVYLQMNSLKPEDTAVYYCNAELFSVNGYDYWGQGTQVTVSS	low polyreactivity
QDQLVESGGGLVQAGGSLRLSCAASGSTFGDYTMGSYRQAPGKEREFVAAITVSVGSTYFADSVKGRFTISRDTAKNTVYLQMNSVKPEDTAFYYCNTDRDPYYHYFDGLYYYWGQGTQVTVSS	low polyreactivity
QVHLVESGGGLVQAGGSLRLSCAASGSTLYTYGMGWYRQAPGKERELVASISWRAARTYYADSVKGRFTISRDNAKNTVYLQMNSLKPEDTAVYYCNADYYIAPYDSWGQGTQVTVSP	low polyreactivity
QVQLVESGGGLVQAGGSLRLTCAASGIIFDTNAMGWYRQAPGKERELVATITQRGGTTYYADSVKGRFTISRDNAKNTVYLQMNSLKPEDTAVYYCNAGPVRLPYDSWGQGTQVTVSS	low polyreactivity

* * *

Assay info: yeast display, Sf9 membrane polyspecificity reagent, FACS + sequencing; frameworks hold sequencing errors

Residues	polyreactivity (PSR sort gate)
QVQLVESGGGLVQAGGSLRLSCAASGSIFPIYAWGWYRQAPGKERELVAAISGSGARTYYSDSVKGRFTISRDNAKNTVYLQMNSLKPEDTAVYYCNAKYGYDSEARIVKPVRYDYWGQGTQVTVSS	high polyreactivity
QVQLVESGGGLVQAGGSLRLSCAASGLTFKTYAMGWYRQAPGKERELVAAITRNGGSTYYADSVKGRFTISRDNAKNTVYLQMNSLKPEDTAVYYCAARRAYDNRHDYWGQGTQVTVSS	high polyreactivity
QVQLVESGRGLVQAGGSLRLSCAASGSIFEQNVMGWYRQAPGKERELVAAITRGGSTNYADSVKGRFTISRDNAKNTVYLQMNSLKPEDTAVYYCSKRRWLGPSTLGYWGQGNQVTVSS	low polyreactivity
QVQLVESGGGLVQAGGSLRLSCAASGLTFHRYAMGWYRQAPGKERELVADISSGDSTNYADSVKGRFTISRDNAKNTVYLQMNSLKPEDTAVYYCNTDGYIYRYRFDYWGQGTQVTVSS	low polyreactivity
QVQLVESGGGLVQAGGSLRLSCAASGSIFVGYAMGWYRQAPGKERELVAAINSSGDRTFYADSVKGRFTISRDNAKNTVYLQMNSLKREDTAVYYCNRVYVRAGVSVAYNYWGQGTQVTVSS	high polyreactivity

* * *

Assay info: yeast display, Sf9 membrane polyspecificity reagent, FACS + sequencing; frameworks hold sequencing errors
Quantity kind: polyreactivity (PSR sort gate)

Residues	Assay value
QVQLVESGGGLVQAGGSLRLSCAASGRTIQYNAMGWYRQAPGKERQLVAAISSSGGSTYYADSVKGRFTISRDNAKNTVYLQMNSLKPEDTAVYYCNAYSQSWNFYGDGDYWGQGTQVTVSS	low polyreactivity
QVQLVESGGGLVQAGGSLRLSCAASGSIFSKYVMGWYRQAPGKERELVAAISWSGTRTYYADSVKGRFTISRDNAKNTVYLQMNSLKPEDTAVYYCAARRPVRVPGQYDYWGQGTQVTVSS	high polyreactivity
QDQLVESGGGLVQAGGSLRLSCAASGFIFRFNARGWYRQAPGKEREVVAVIRWSSGSTYYADSVKGRFTISRDNAKNTVYLQMNSLKPEDTAVYYCAAVDDDYSIVWYYYWGQGTQVTVSS	low polyreactivity
QVQLVESGGGLVLAGGSLRLSCAASGSIFWVNAMGWYRQAPGKERELVAAINYSDGSTSYADSVKGRFTISRDIAKNTVYLQMNSLKPEDTAVYYCNAESFELMYYWGQGTQVTVSS	low polyreactivity
QVQLVESGGGLGQAGGSLRLSCAASGFTFRTNAMGWYRQAPGKEREFVAAISWSGGRTYYADSVKGRFTISRDNAKNTVYLQMNSLKPEDTAVYYCNADPFHWYYTNMYYWGQGTQVTVSS	high polyreactivity

* * *

Assay info: yeast display, Sf9 membrane polyspecificity reagent, FACS + sequencing; frameworks hold sequencing errors

Residues	polyreactivity (PSR sort gate)
QVQLVESGGGLVQAGGSLRLSCAASGRIFNPNAMGWDRQAPGKERELVAAISTSGDSTYADSVKGRFTISRDNAKNTVYLQMNSLKPEDTAVYYCAATSGRRTTRWGRYGYWGQGTQVTVSS	high polyreactivity
QVQLVESGGGLVQAGGSLRLSCAASGFTFYRNAMGWYRQAPGKERELVAAITRRGGSTYYADSVKGRFTISRDNAKNTVYLQMISLKPEDTAVYYCSKSYRFPSVGPPGELDYWGQGTQVTVSS	high polyreactivity
QVQLVESGGGLVQAGGSLRLSCAASGRTLTGNAMGWYRQAPGKERELVAAITARGGSTYYADSVKGRFTISRDIAKNTVYLQMNSLKPEDSAVYYCATLPVRIRRDYWGQGTQVTVSS	high polyreactivity
QDQLVESGGGLVQAGGSLRLSGAASGRIFGYYAMGWYRQPPGKETELVARISSGGGSTYYADSVKGRFTISRDNAKNTVYLQLNSLKPEDTAVDYCATVLYPYSPRYDYWGQGTLVTVSS	high polyreactivity
QVQLVESGGGLVQAGGSLRLSCAASGSTFIGYAMGWYRQAPGKEWELVAAISWSGGRTYYADSVKGRFTISRDNEKNTVYLQMNSLKPEDTAVYYCAASYYGCSARYDTLGIYEYWGLGTQVTVSS	high polyreactivity
PVQLVESGGGLVQAGGSLRLSCAASGFTFFYYAMGGYRQGPGKERELVAALNWSGGRTYYADSVKGRFTISRDNAKNTVYLQRNSLKPEDTAVYYCAVDRSWSTRYPAYPGGYWGQGTQVTVSS	high polyreactivity
QVQLVESGGGLVQAGGSLRLSCAGSGSIFGEYVMGCYRQATVKERELVADISWRDGDTYYADSVKGRFTISRDNAKNTVYLQMNSLKPEDTAVYYFAADVIVPESYGYWPLSYYYLGQGTQVTVSS	low polyreactivity
QVQLVESGGGLVQAGGSLRLSCAASGRIFYYYAMGWYREAPGKEREFVARNRSSGGSTYADSVKGRFTISRDNAKNTVYLQMNSLKPEDTAVYYCARDGYTAVEYDYWGQGTQVTVSS	low polyreactivity
QVQLVESGGGLVQAGGSLRLSCAASGFIVWVYAMGWYRQAPGKERELVAAITSGGGSTYYADSVKGRFTISRDNAKNTVYLQMNSLKPEHTAVYYCNAVSWEGYDFDYWGQGTQVTVSS	high polyreactivity
QVQLVESGGGLVQAGGSLRLSCAASGSIFDFYAMGWYRQAPGKERELVAAISGSGGSTYYADSVKGRFTISRDNAKNTVYLQMNSLKPEDTAVYYCSYYYWGQGTQVTVSS	low polyreactivity
QVQLVESGGGLVQAGGSLRLSCAASGSTFYPYAMGWYRQAPGKERELVAGISWSGGSTYYADSVKGRFTISRDNAKNTVYLQMNSLKPEDTAVYSCAVDVYWSVIYDYWGQGTQVTVSS	low polyreactivity
